Provenance of the data: the supplement of paper PMC6757056

// reported normalized RNA/DNA level without ligand (log10) per item
B1: library; a variant is named by its letters at N, in order (parent)
chain: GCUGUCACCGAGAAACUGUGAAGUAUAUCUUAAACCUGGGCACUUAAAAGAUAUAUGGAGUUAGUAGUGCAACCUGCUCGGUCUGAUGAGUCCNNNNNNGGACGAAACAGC

variants of: B1; assay: normalized RNA/DNA level without ligand (relative to sTRSVctl = 100) (log10 (% of sTRSVctl)); HEK293T; ligand: cyclic di-GMP (c-di-GMP-II aptamer); higher = less ribozyme self-cleavage, higher mRNA level; conditions: reporter: mCherry (pCS4076), ligand present: no
QUANTITY KIND: normalized RNA/DNA level without ligand (log10)

variant_spec=CUGUUU experimental_result=1.58
variant_spec=UAGGAA experimental_result=1.49
variant_spec=CGCGUC experimental_result=1.77
variant_spec=UAAGCU experimental_result=1.7
variant_spec=GACAGU experimental_result=1.66
variant_spec=AAUUAG experimental_result=1.6
variant_spec=AAGAAC experimental_result=1.55
variant_spec=GCAUUG experimental_result=1.5
variant_spec=GAAUAG experimental_result=1.64
variant_spec=GCCACC experimental_result=1.68
variant_spec=AUGGGA experimental_result=1.4
variant_spec=GUGGGA experimental_result=1.53
variant_spec=CAGGUG experimental_result=1.62
variant_spec=CGUUAG experimental_result=1.75
variant_spec=GACCCU experimental_result=1.78
variant_spec=GUCUUC experimental_result=1.7
variant_spec=ACUAGG experimental_result=1.52
variant_spec=AGCUGA experimental_result=1.58
variant_spec=CCGAUA experimental_result=1.31
variant_spec=UGACUU experimental_result=1.68
variant_spec=CUUUCC experimental_result=1.82
variant_spec=UUCAGC experimental_result=1.78
variant_spec=UAACGA experimental_result=1.59
variant_spec=AGCAAA experimental_result=1.48
variant_spec=ACGGGG experimental_result=1.69
variant_spec=UAGUUG experimental_result=1.7
variant_spec=CGAGUU experimental_result=1.72
variant_spec=AUACUU experimental_result=1.66
variant_spec=CCUGAA experimental_result=1.32
variant_spec=CGCAAU experimental_result=1.45
variant_spec=ACCUAA experimental_result=1.57
variant_spec=UCUGAA experimental_result=1.51
variant_spec=UAUGGC experimental_result=1.71
variant_spec=CUCAGA experimental_result=1.64
variant_spec=GUUCUC experimental_result=1.75
variant_spec=UCGUCC experimental_result=1.79
variant_spec=GCAAGU experimental_result=1.39
variant_spec=CUACUU experimental_result=1.56
variant_spec=GUUUAU experimental_result=1.65
variant_spec=UUCAUA experimental_result=1.69
variant_spec=GGUAAU experimental_result=1.61
variant_spec=UGAGAA experimental_result=1.67
variant_spec=CCCAAC experimental_result=1.61
variant_spec=UCGGUU experimental_result=1.61
variant_spec=UCCCCG experimental_result=1.82
variant_spec=AUACAG experimental_result=1.59
variant_spec=UAGAAG experimental_result=1.61
variant_spec=GCACCA experimental_result=1.59
variant_spec=UUUUGA experimental_result=1.74
variant_spec=GGAGUC experimental_result=1.55
variant_spec=GAUAUU experimental_result=1.61
variant_spec=AUGUAC experimental_result=1.63
variant_spec=AAGAGA experimental_result=1.33
variant_spec=AUCCAU experimental_result=1.65
variant_spec=GAGCAU experimental_result=1.83
variant_spec=CGCGUA experimental_result=1.45
variant_spec=CCAGAG experimental_result=1.42
variant_spec=AAGUCC experimental_result=1.76
variant_spec=AGAAAG experimental_result=1.5
variant_spec=UCCGCU experimental_result=1.75
variant_spec=GCCGCG experimental_result=1.79
variant_spec=UGCUAA experimental_result=1.7
variant_spec=CUGUGG experimental_result=1.7
variant_spec=UUAGGA experimental_result=1.57
variant_spec=GGCUAA experimental_result=1.55
variant_spec=GUUAAA experimental_result=1.51
variant_spec=AGUCAU experimental_result=1.69
variant_spec=UGGAGA experimental_result=1.58
variant_spec=UCGACU experimental_result=1.61
variant_spec=GCCCUC experimental_result=1.74
variant_spec=UGUUUG experimental_result=1.77
variant_spec=AUCCUA experimental_result=1.61
variant_spec=GCCUGC experimental_result=1.78
variant_spec=ACUGGA experimental_result=1.39
variant_spec=GUGGCA experimental_result=1.81
variant_spec=ACGUGC experimental_result=1.59
variant_spec=GACUAG experimental_result=1.67
variant_spec=GCCUAG experimental_result=1.74
variant_spec=CUUGCU experimental_result=1.76
variant_spec=GUGGUU experimental_result=1.62
variant_spec=AUCCUC experimental_result=1.82
variant_spec=UCAUUU experimental_result=1.64
